- SYSTEM TESTED: Biotin QP004.3 (biotin-PDL1-FC) (human) (UniProt Q9NZQ7)
- Sequence (Q9NZQ7 19-238 limits assumed): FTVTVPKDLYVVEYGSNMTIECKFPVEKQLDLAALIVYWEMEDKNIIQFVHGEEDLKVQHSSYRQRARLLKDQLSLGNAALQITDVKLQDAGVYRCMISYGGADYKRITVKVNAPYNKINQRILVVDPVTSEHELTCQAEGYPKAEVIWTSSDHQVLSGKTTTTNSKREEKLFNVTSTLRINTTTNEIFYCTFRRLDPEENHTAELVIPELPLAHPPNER
- METHOD: blocking ELISA, PD1-FC coated, biotin-PDL1-FC plus antibody; competitor PD1-FC
EXPERIMENTAL ENDPOINT: ELISA reading at 0.0457 nM antibody
// no unit, no text: just the number

// known answers, use as guide
| BINDER | ELISA reading at 0.0457 nM antibody |
| --- | --- |
| QP325 (Fc fusion, not shown: a dimerising Fc or GST) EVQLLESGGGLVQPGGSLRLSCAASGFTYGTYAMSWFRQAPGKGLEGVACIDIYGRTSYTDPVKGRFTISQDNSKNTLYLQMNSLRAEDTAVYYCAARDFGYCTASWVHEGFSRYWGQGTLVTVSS | 1.08 |
| QP1166 (Fc fusion, not shown: a dimerising Fc or GST) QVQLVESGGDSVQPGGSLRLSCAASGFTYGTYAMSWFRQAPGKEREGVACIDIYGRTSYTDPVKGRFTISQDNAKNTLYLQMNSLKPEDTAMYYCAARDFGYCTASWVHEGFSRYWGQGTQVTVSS | 1.16 |
| QP320 (Fc fusion, not shown: a dimerising Fc or GST) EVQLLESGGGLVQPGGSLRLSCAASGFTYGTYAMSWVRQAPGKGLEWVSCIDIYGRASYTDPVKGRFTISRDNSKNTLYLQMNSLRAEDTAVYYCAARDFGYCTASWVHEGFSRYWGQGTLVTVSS | 1.21 |

Attention now turns to another entry.
input: Quick one: ELISA reading at 0.0457 nM antibody of QP324 (Fc fusion, not shown: a dimerising Fc or GST) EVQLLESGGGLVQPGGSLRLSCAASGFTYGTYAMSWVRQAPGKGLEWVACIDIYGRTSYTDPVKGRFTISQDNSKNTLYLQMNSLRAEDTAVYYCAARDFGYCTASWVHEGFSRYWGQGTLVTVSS ?
output: 1.29
